TARGET_OR_TEST_SYSTEM: DRB4*0101
ASSAY_TEXT: binding to purified HLA
RECORDED_ENDPOINT: pIC50
Schema: pIC50 number; meaning minus log10 of the concentration expressed in molar units.

Read the entry AAANFVAAYTLHAAA [N4.Y9.H12] and write its reported pIC50.
6.25

Let me know recorded pIC50 for AAAEFVAAYTLHAAA [E4.Y9.H12] , thanks.
6.35

Kindly indicate its recorded pIC50. Item: AAAEFVAAWTLHAAA [E4.H12]
6.46

Please indicate pIC50 recorded for AAAHFVAAFTLKAEA [H4.F9.E14]
6.28

# return recorded pIC50 for input AAAHFVAANTLHAAA [H4.N9.H12]
6.06
